Assign IC50 to each entry below.
system name: Human recombinant PDE2A (hPDE2A) (Homo sapiens, UniProt O00408)
Construct: made in house; host or cells: Sf9 insect cells (baculovirus)
Sequence (O00408 whole entry): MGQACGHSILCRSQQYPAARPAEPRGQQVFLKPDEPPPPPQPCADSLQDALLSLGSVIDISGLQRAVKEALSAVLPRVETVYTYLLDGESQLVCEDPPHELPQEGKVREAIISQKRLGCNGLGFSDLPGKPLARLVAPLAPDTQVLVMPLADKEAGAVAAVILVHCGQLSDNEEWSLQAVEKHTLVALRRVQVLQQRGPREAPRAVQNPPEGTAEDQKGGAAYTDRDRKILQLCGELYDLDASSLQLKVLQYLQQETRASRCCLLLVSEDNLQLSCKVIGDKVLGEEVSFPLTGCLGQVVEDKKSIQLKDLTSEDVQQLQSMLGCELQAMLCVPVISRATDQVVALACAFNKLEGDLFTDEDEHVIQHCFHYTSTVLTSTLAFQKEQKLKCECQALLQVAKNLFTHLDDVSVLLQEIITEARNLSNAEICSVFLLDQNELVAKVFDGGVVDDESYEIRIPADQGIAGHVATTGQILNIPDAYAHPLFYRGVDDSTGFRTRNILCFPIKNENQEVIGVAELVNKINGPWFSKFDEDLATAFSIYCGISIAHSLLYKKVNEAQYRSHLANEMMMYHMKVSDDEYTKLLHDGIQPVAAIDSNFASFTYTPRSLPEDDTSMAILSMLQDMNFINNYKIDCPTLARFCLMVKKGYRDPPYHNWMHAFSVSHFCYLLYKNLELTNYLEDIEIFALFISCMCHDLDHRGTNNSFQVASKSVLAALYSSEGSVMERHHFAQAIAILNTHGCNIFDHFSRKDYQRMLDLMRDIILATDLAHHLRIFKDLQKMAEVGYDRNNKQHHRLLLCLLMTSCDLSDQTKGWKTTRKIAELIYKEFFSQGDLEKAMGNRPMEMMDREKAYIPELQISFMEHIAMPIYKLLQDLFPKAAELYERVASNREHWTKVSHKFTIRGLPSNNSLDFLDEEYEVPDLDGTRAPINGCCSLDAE
procedure summary: In vitro assay PDE2A (SPA, 3H-cGMP)
Format: biochemical
condition: read-out: pIC50 PDE2 (converted)

QUERY: For `CCCOc1cncc(-c2nnc3c(C)nc4ccc(CNC5CCC5)cc4n23)c1` , what is its reported IC50?
RESULT: 302 nM

QUERY: For `COc1ccc(-c2nnc3c(C)nc4ccc(C(=O)NCc5ccccn5)cc4n23)c(Cl)c1` , what is its reported IC50?
RESULT: 6.92 nM

QUERY: For `CCCOc1ccc(Cl)c(-c2nnc3c(C)nc4ccc(OCCc5cccnc5)cc4n23)c1` , what is its reported IC50?
RESULT: 24.5 nM

QUERY: For `COc1cncc(-c2nnc3c(C)nc4ccc(Br)cc4n23)c1` , what is its reported IC50?
RESULT: 27.5 nM

QUERY: For `Cc1nc2ccc(CN3CCC(F)CC3)cc2n2c(-c3ccccc3Cl)nnc12` , what is its reported IC50?
RESULT: 5.5 nM

QUERY: For `CCNC(=O)c1ccc2c(c1)nc(C)c1nnc(-c3cccnc3OC)n12` , what is its reported IC50?
RESULT: 204 nM

QUERY: For `CCCCOc1ccc(Cl)c(-c2nnc3c(C)nc4ccc(CN5CCC(F)CC5)cc4n23)c1` , what is its reported IC50?
RESULT: 29.5 nM

QUERY: For `Cc1nc2ccc(N)cc2n2c(-c3ccccc3Cl)nnc12` , what is its reported IC50?
RESULT: 2.34 nM
